- protocol summary: qHTS for Inhibitors of human tyrosyl-DNA phosphodiesterase 1 (TDP1): qHTS in cells in presence of CPT; further: nearly all actives have a fitted effect of over 55% in size
- particulars: chicken DT40 Tdp1-/-;hTDP1 cells + 20 nM CPT, ATP luminescence, 48 h; series mostly up to 46.2 µM
In all, about 420,000 compounds went through this assay and about 50,000 (12%) were called active. Inconclusive results (about 26%) are left out. The call rests on the fitted dose curve; in most records, active means well fitted inhibition curve with a large enough effect; inconclusive means small, poorly fitted or top-dose-only effect; inactive means flat fitted curve, though single readings scatter. Many of the other results were omitted from the sample, so actives are more common in it than they were.
Parameter call: string, one of active, inactive

Hi, sorry to bother you, what did the test record for CCOP(=S)(OCC)C(O)CCCCCn1c(=O)c(F)cn(C2CCCO2)c1=O (stereo unspecified) ?
inactive

Hi, sorry to bother you, what did the test record for COc1cc2c(cc1OC)[C@@H]1C(=O)c3ccc(O)c(CC=C(C)C)c3OC1CO2 (stereo partly specified) ?
inactive

Hi, sorry to bother you, what did the test record for CC(Cc1ccccc1)NC=O (stereo unspecified) ?
inactive

Hi, sorry to bother you, what did the test record for CC(CC(C#N)(c1ccccc1)c1ccccc1)N1CCCCC1 (stereo unspecified) ?
inactive

Hi, sorry to bother you, what did the test record for CC1C(=O)OC2CCN3CC=C(COC(=O)C(C)(O)C1(C)O)C23 (stereo unspecified) ?
active

Hi, sorry to bother you, what did the test record for CC(Cc1ccccc1)NCCC(c1ccccc1)c1ccccc1 (stereo unspecified) ?
active

Hi, sorry to bother you, what did the test record for CCN(CC)C(=O)Oc1ccc(NC(=O)N2CCOCC2)cc1 ?
inactive

Hi, sorry to bother you, what did the test record for C[C@H]1CN([C@@H](C)CO)C(=O)CCCn2nncc2CO[C@H]1CN(C)C(=O)Oc1ccccc1 ?
inactive

Hi, sorry to bother you, what did the test record for COc1ccc(CCn2c(O)c(C=NC3CC3)c(=O)[nH]c2=O)cc1OC ?
inactive

Hi, sorry to bother you, what did the test record for O=C(CN1CCCCC1)Nc1ccc(Br)cc1C(=O)c1ccccc1Cl ?
inactive

Hi, sorry to bother you, what did the test record for COC(=O)C[C@H]1CC[C@H]2NC[C@@H](O)COC[C@@H]2O1 ?
inactive

---

- protocol summary: qHTS for Inhibitors of human tyrosyl-DNA phosphodiesterase 1 (TDP1): qHTS in cells in presence of CPT; further: nearly all actives have a fitted effect of over 55% in size
- particulars: chicken DT40 Tdp1-/-;hTDP1 cells + 20 nM CPT, ATP luminescence, 48 h; series mostly up to 46.2 µM
Screen size: about 420,000 compounds; about 50,000 (12%) were called active. Not shown: some 26% with an inconclusive outcome. Calls come from the whole dose curve; as a rule, active = well fitted inhibition curve with a large enough effect; inconclusive = small, poorly fitted or top-dose-only effect; inactive = flat fitted curve, though single readings scatter. The sample as a whole holds a higher share of actives than the screen did.
Parameter call: string, one of t = active, f = inactive

Hi, sorry to bother you, what did the test record for O=C1/C(=C\c2ccc3c(c2)OCO3)N2CCC1CC2 ?
f

Hi, sorry to bother you, what did the test record for O=C(CN1CCCC1=O)NCCc1ccccc1 ?
f

Hi, sorry to bother you, what did the test record for COc1ccc(C)cc1N(CC(=O)N1CCC(C)CC1)S(=O)(=O)c1ccc(C)cc1 ?
t

Hi, sorry to bother you, what did the test record for CCOC(=O)C(O)(c1ccc(NC(=O)c2ccco2)c(OC)c1)C(F)(F)F (centres undefined) ?
f

Hi, sorry to bother you, what did the test record for Cn1c(O)c(C=NCCCC(=O)O)c(=O)n(C)c1=O ?
f

Hi, sorry to bother you, what did the test record for CCN1C(=O)NC(=O)C2(CCCC2)C1=O ?
f

Hi, sorry to bother you, what did the test record for c1ccc(CC2CCCCN2)cc1 (centres undefined) ?
f

Hi, sorry to bother you, what did the test record for O=c1[nH]c(=O)n(Cc2ccccc2)c(O)c1/C=N/Nc1c(F)c(F)c(F)c(F)c1F ?
f

Hi, sorry to bother you, what did the test record for CCCCC(=O)N/N=C/c1c(O)n(-c2ccccc2)c(=O)[nH]c1=O ?
f

Hi, sorry to bother you, what did the test record for Cc1cc(C)cc(C(=O)N(CCc2ccccc2)C2=CC3CCC(C2)N3C)c1 (centres undefined) ?
t

Hi, sorry to bother you, what did the test record for CN1CCc2cc3c(cc2[C@H]1[C@@H]1OC(=O)c2c1ccc1c2OCO1)OCO3 ?
f

Hi, sorry to bother you, what did the test record for CCOC(=O)C1=C(C)OC(N)=C(C(=O)OC)C12C(=O)Nc1ccc(Br)cc12 (centres undefined) ?
f

Hi, sorry to bother you, what did the test record for COP(=O)(OC)C(NC(=O)c1ccc(C)cc1)C(Cl)(Cl)Cl (centres undefined) ?
f

Hi, sorry to bother you, what did the test record for COC(=O)N1C(c2ccccc2)C1c1ccccc1 (centres undefined) ?
f

Hi, sorry to bother you, what did the test record for N=c1ccccn1Cc1ccccc1 ?
f

Hi, sorry to bother you, what did the test record for CCc1ccccc1NC(=O)c1sc2nc3c(cc2c1N)CN(Cc1ccccc1)CC3 ?
t

Hi, sorry to bother you, what did the test record for C/C(=C\C=C/[C@@H](C)C(=O)O)[C@H]1CN[C@H](C(=O)O)[C@@H]1CC(=O)O ?
f

Hi, sorry to bother you, what did the test record for CSc1ccc(C(=O)C2CCCN(Cc3ccn[nH]3)C2)cc1 (centres undefined) ?
f

Hi, sorry to bother you, what did the test record for CNCC[C@H](Oc1ccc(C(F)(F)F)cc1)c1ccccc1 ?
t
